The values you see were collected from ChEMBL document CHEMBL4627399.

molecular target: Kappa-type opioid receptor (Homo sapiens); assay: Agonist activity at human kappa opioid receptor expressed in CHO cell membranes incubated for 1 hr by [35S]GTPgammaS binding assay; assay type: functional; conditions: cho
Sequence (P41145 whole entry): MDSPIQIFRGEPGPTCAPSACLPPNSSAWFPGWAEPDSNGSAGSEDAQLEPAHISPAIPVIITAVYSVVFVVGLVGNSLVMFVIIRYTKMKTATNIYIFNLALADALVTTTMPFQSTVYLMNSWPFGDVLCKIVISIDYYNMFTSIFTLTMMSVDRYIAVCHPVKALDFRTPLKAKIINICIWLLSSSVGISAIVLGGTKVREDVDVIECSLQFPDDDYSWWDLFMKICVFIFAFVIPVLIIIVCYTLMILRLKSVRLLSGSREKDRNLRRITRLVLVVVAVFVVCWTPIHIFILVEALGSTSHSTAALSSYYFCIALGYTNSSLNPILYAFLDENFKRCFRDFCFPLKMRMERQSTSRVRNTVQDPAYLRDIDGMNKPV

| QUERY SMILES | EC50 |
| --- | --- |
| Cc1nnc(-c2cnc3c(c2)C[C@@]2(OCCCc4ccccc4)[C@H]4Cc5ccc(O)c6c5[C@@]2(CCN4CC2CC2)[C@H]3O6)o1 | Not Active |
| COc1cc(-c2cnc3c(c2)C[C@@]2(OCCCc4ccccc4)[C@H]4Cc5ccc(O)c6c5[C@@]2(CCN4CC2CC2)[C@H]3O6)ccn1 | Not Active |
| Oc1ccc2c3c1O[C@H]1c4ncc(-c5cnccn5)cc4C[C@@]4(OCCCc5ccccc5)[C@@H](C2)N(CC2CC2)CC[C@]314 | Not Active |

###

target: Delta-type opioid receptor (Homo sapiens); assay: Antagonist activity at human delta opioid receptor expressed in CHO cell membranes assessed as reduction in SNC80-induced [35S]GTPgammaS binding preincubated for 5 mins followed by SNC80 addition and measured after 1 hr
Sequence (P41143 whole entry): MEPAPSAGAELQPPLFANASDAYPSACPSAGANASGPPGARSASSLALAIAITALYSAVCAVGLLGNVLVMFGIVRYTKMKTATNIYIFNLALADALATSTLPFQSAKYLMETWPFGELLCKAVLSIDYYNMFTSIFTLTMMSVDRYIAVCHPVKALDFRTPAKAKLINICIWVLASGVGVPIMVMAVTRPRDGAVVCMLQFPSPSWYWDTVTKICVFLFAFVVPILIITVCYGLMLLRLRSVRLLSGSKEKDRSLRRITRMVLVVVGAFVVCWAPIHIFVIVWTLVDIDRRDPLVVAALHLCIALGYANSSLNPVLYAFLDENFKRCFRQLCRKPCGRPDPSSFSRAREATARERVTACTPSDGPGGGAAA
pIC50: −log10 of the molar value.
Items are presented alongside their recorded pIC50.
MEASUREMENT KIND: pIC50

| QUERY SMILES | LIMIT QUALIFIER | OBSERVED MEASUREMENT |
| --- | --- | --- |
| Oc1ccc2c3c1O[C@H]1c4ncc(-c5ccc(F)cc5)cc4C[C@@]4(OCCCc5ccccc5)[C@@H](C2)N(CC2CC2)CC[C@]314 | = | 7.46 |
| Oc1ccc2c3c1O[C@H]1c4ncc(-c5ccccc5)cc4C[C@@]4(OCCCc5ccncc5)[C@@H](C2)N(CC2CC2)CC[C@]314 | > | 9.29 |
| Cc1nocc1-c1cnc2c(c1)C[C@@]1(OCCCc3ccccc3)[C@H]3Cc4ccc(O)c5c4[C@@]1(CCN3CC1CC1)[C@H]2O5 | = | 9.17 |
| Cc1ccc(-c2cnc3c(c2)C[C@@]2(OCCCc4ccccc4)[C@H]4Cc5ccc(O)c6c5[C@@]2(CCN4CC2CC2)[C@H]3O6)cc1 | = | 8.44 |
| Cc1cccc(C)c1-c1cnc2c(c1)C[C@@]1(OCCCc3ccccc3)[C@H]3Cc4ccc(O)c5c4[C@@]1(CCN3CC1CC1)[C@H]2O5 | = | 7.29 |
| Oc1ccc2c3c1O[C@H]1c4ncc(-c5ccc(Cl)cc5)cc4C[C@@]4(OCCOc5ccccc5)[C@@H](C2)N(CC2CC2)CC[C@]314 | = | 7.60 |
| Cc1ccccc1-c1cnc2c(c1)C[C@@]1(OCCCc3ccccc3)[C@H]3Cc4ccc(O)c5c4[C@@]1(CCN3CC1CC1)[C@H]2O5 | = | 7.84 |
| CN(C)c1ccccc1-c1cnc2c(c1)C[C@@]1(OCCCc3ccccc3)[C@H]3Cc4ccc(O)c5c4[C@@]1(CCN3CC1CC1)[C@H]2O5 | = | 7.91 |
| Oc1ccc2c3c1O[C@H]1c4ncc(-c5ccc(Br)cc5)cc4C[C@@]4(OCCCc5ccccc5)[C@@H](C2)N(CC2CC2)CC[C@]314 | > | 9.29 |
| Oc1ccc2c3c1O[C@H]1c4ncc(-c5cn[nH]c5)cc4C[C@@]4(OCCCc5ccccc5)[C@@H](C2)N(CC2CC2)CC[C@]314 | = | 9.21 |
| Oc1ccc2c3c1O[C@H]1c4ncc(-c5ccncn5)cc4C[C@@]4(OCCCc5ccccc5)[C@@H](C2)N(CC2CC2)CC[C@]314 | = | 9.15 |
| CN(C)c1cccc(-c2cnc3c(c2)C[C@@]2(OCCCc4ccccc4)[C@H]4Cc5ccc(O)c6c5[C@@]2(CCN4CC2CC2)[C@H]3O6)c1 | = | 8.42 |
| Oc1ccc2c3c1O[C@H]1c4ncc(-c5ccccc5C5CC5)cc4C[C@@]4(OCCCc5ccccc5)[C@@H](C2)N(CC2CC2)CC[C@]314 | = | 8.61 |
